Sourced from patent US20220119354A1

test system: pigweed (Amaranthus retroflexus); assay: Test A postemergence, pigweed; assay type: in vivo; details: 125 g ai/ha, 0 to 100 scale, 0 no effect, 100 complete control
quantity kind: Plant response rating, Pigweed
Lab note: write the figure by itself, no unit.

Below, each entry is followed by its recorded Plant response rating, Pigweed result.
                                   compound  experimental_value
0  CC(F)c1nc(N[C@H](C)c2cc3ccccc3o2)nc(N)c1C(F)(F)F (stereo partly shown)                  60
1  Nc1nc(NC(c2cc3ccccc3s2)C2CC2)ncc1C(F)(F)F (racemic)                  90
2  C[C@@H](Nc1ncc(C(F)(F)F)c(N)n1)c1cc2ccccc2n1C                  60
3  C[C@@H](Nc1nc(N)c(C(F)(F)F)c(C(F)F)n1)c1cc2ccccc2s1                  90
4  CC(Nc1ncc(C(F)(F)F)c(N)n1)c1cc2ccc(F)c(F)c2s1 (stereo not shown)                  90
5  CC[C@@H](Nc1ncc(C(F)(F)F)c(N)n1)c1cc2ccc(F)cc2s1                  90
6  C[C@H](Nc1ncc(C(F)(F)F)c(N)n1)c1cc2c(F)cccc2o1                  60
7  Cc1ccc2c(C(C)Nc3ncc(C(F)(F)F)c(N)n3)coc2c1 (stereo not shown)                  90

Record `C[C@@H](Nc1nc(N)c(C(F)(F)F)c(C(F)(F)F)n1)c1cc2ccccc2s1` , field Plant response rating, Pigweed: 60

Record CC(Nc1ncc(C(F)(F)F)c(N)n1)c1coc2cccc(F)c12 (racemic) , field Plant response rating, Pigweed: 60
